The measurements presented in this section are drawn from ChEMBL document CHEMBL1130934.

Test target: Cannabinoid receptor 1 (Rattus norvegicus, UniProt P20272)
Sequence (P20272 whole entry): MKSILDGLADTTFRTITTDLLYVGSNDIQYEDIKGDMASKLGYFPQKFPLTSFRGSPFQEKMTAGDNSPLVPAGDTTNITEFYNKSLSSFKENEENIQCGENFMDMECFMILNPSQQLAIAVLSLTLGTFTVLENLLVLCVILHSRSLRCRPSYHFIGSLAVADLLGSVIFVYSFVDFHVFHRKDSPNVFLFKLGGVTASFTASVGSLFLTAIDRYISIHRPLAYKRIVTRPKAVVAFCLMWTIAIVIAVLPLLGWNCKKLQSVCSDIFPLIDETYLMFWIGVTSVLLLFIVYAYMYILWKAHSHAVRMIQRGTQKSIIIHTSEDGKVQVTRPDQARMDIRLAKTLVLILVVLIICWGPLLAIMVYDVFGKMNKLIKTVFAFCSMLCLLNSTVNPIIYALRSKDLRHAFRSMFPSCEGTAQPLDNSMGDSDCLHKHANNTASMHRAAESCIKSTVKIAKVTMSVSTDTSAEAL
Assay comment: Binding affinity for the cannabinoid brain receptor (CB1) using [3H]CP-55940
Assay endpoint: Ki
Write your answer as a measured quantity: the number, then the unit.

Using the record for `CCCCC[C@@H](C)[C@H](C)c1cc(O)c2c(c1)OC(C)(C)[C@@H]1CC=C(CO)C[C@@H]21` , report its Ki.
0.49 nM

Using the record for `CCCCC[C@@H](C)[C@H](C)c1cc(O)c2c(c1)OC(C)(C)[C@@H]1CC=C(C)C[C@@H]21` , report its Ki.
0.46 nM

Using the record for `CCCCCCC(C)(C)c1cc(O)c2c(c1)OC(C)(C)[C@@H]1CC=C(C)C[C@@H]21` , report its Ki.
0.77 nM

====

Test target: UniProt:P20272
Assay comment: Binding affinity for the Cannabinoid receptor using [3H]CP-55940 as radioligand
Assay endpoint: pKi
Keep in mind that pKi stands for -log10 of concentration in molar terms.

Using the record for `CCCCCCC(C)(C)c1cc(O)c2c(c1)OC(C)(C)[C@@H]1CC=C(CO)C[C@@H]21` , report its pKi.
9.14
